Value source: patent US6348311B1

Molecular target: DNA-PK (Homo sapiens)
Assay: In vitro kinase assay, purified DNA-PK with GST-peptide / GST-fusion substrates
Assay type: biochemical
Settings: GST-peptide substrate; relative to the p53ser15 site
Source text: FIGS. 1A, 1B, and 1C. Phosphorylation of GST-p53 mutant peptides (amino acids 9-21) by ATM, ATR, and DNA-PK in vitro. […] The amount of 32P-labeled GST-peptides was quantitated with a PhosphorImager and was normalized for each of the kinases to the level of phosphorylation of wild-type GST-p53. […] In vitro kinase assays and immunoprecipitation. […] Radiolabeled proteins were visualized and quantitated on a Phosphorimager (Molecular Dynamics). […]
Where no end group is shown, it is not given here.
metric: Relative Phosphorylation (%) DNA-PK

p95: GST-peptide TPGPSLSQGVSVDE (SEQ ID NO:10), S343 (not fully specified (N-terminus); also: GST fusion; listed as Homo sapiens)	45
CHK1 (SQ2): GST-peptide VQGISFSQPTCPDH (SEQ ID NO:17), S345 (also: GST fusion)	20
RAD17 (SQ1): GST-peptide TWSLPLSQDSASEL (SEQ ID NO:18), S646 (not fully specified (N-terminus); also: GST fusion)	97
CtIP: GST-peptide DPGADLSQYKMDVT (SEQ ID NO:44), S664 (also: GST fusion)	2
p120E4F: GST-peptide APEPPVSQELPCSR (SEQ ID NO:31), S355 (not fully specified (N-terminus); also: GST fusion; listed as Homo sapiens)	2
BRCA1 (SQ2): GST-peptide DCSGLSSQSDILTT (SEQ ID NO:33), S1387 (also: GST fusion)	36
PTS (123F2): GST-peptide WETPDLSQAEIEQK (SEQ ID NO:37), S61 (not fully specified (N-terminus); also: GST fusion)	33
WRN (SQ1): GST-peptide EKAYSSSQPVISAQ (SEQ ID NO:21), S1141 (not fully specified (N-terminus); also: GST fusion; listed as Homo sapiens)	14

1. DNA LIG-IV: GST-peptide DLKLGVSQQTIFSV (SEQ ID NO:39), S132 (also: GST fusion)
2. BRCA1 (SQ3): GST-peptide SSEYPISQNPEGLS (SEQ ID NO:34), S1466 (also: GST fusion)
# input Compare Relative Phosphorylation (%) DNA-PK: is it lower for 1 or for 2 ? Pick one and reply with its label.
# output 2
